B1: ZNF232 (parent)
chain: FPKSEQVYLHFLSVVTEDGPEPKD

- Variants of: B1
- experiment: protein stability index of a GFP-peptide fusion (GPS, HEK-293T) (PSI 1-6); higher = more stable;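 further: lentivirally expressed fusions sorted by FACS into six bins by GFP to DsRed ratio, PSI derived from sequencing read proportions per bin multiplied by bin number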
- settings: c terminus: a fixed tail appended
metric: protein stability index
Number, no unit, nothing else.

The cases that follow already have their protein stability index on record.
Could you share which protein stability index value was measured for E5W ?
2.02

Record: Y8N
2.01

Record: K3W
1.95

Now examine the next entry.
Could you share which protein stability index value was measured for G19M ?
2.05

Sourced from the supplement of paper PMC10567573
